# credit: patent US12516022B2

Can you tell me Fraction (percent) of indirubin for the items I'm about to list?
Assay: Stability of indirubin prodrugs in simulated fluids (FaSSIF, FaSSGF), 24 h at 37° C., UPLC-MS
Assay type: physicochemical
Settings: FaSSIF 37° C. 24 h
Experimental: 10.41 g fasted state simulated intestinal fluid (FaSSIF) buffer concentrate was dissolved in 240.3 g deionized water and 560 mg FaSSIF powder added. The mixture was stirred until complete dissolution observed. The test compound (approx. 1-3 mg) was placed in 5.00 mL of FaSSIF solution. Samples of the solution with the test compound were taken after 24 hours in at 37° C. (oven-controlled temperature). […]
Value and unit, in that order.

For the 3 compounds below, give their Fraction (percent) of indirubin values.
1. O=C1/C(=C2/C(=O)N(CO)c3ccccc32)Nc2ccccc21 [drawing 219]
2. O=C1/C(=C2/C(=O)N(C(=O)NCCNS(=O)(=O)c3ccc([N+](=O)[O-])cc3)c3ccccc32)Nc2ccccc21
3. O=C(O)CCC(=O)OCN1C(=O)/C(=C2\Nc3ccccc3C2=O)c2ccccc21

1. 100%
2. 0%
3. 0%

Look up Fraction (percent) of indirubin for the entries below, preserving their order.
1. CS(=O)(=O)NCCNC(=O)N1C(=O)/C(=C2\Nc3ccccc3C2=O)c2ccccc21
2. C=CCOC(=O)N1C(=O)/C(=C2\Nc3ccccc3C2=O)c2ccccc21

1: 0%; 2: 2%
